B1: POU domain, class 5, transcription factor 1, residues 134 to 212; numbered along this chain, Q01860 (parent)
chain: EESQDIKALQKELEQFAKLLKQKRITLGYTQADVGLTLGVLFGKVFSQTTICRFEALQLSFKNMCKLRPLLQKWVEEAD

- Variants of: B1
- assay-info: abundance fitness (aPCA) (normalised: wild type 0, dead -1); higher = more abundant; growth selection in yeast, the domain comes from the species named
- conditions: Homo sapiens
Classify as follows. Reported abundance fitness greater than or equal to -0.3: Satisfied. Reported abundance fitness below: Not satisfied.

Example entries begin here.
* EESQDIKALQKELEQFAKLLKQKRITLGYTQADVGLTLGVLFGKVFSQTTICRFEALQLSFKNMCKERPLLQKWVEEAD [L67E] | Satisfied
* EESQDIKALQKELEQFAKLLKQKRITLGYTQADVGLTLGVLFGKVFSQTTICRGEALQLSFKNMCKLRPLLQKWVEEAD [F54G] | Not satisfied

In plain terms: is recorded abundance fitness at least -0.3 for EESQDIKALQKEIEQFAKLLKQKRITLGYTQADVGLTLGVLFGKVFSQTTICRFEALQLSFKNMCKLRPLLQKWVEEAD [L13I] ?
Satisfied

Cool, now VESQDIKALQKELEQFAKLLKQKRITLGYTQADVGLTLGVLFGKVFSQTTICRFEALQLSFKNMCKLRPLLQKWVEEAD [E1V]
Not satisfied

Can you check EESQDIKALQKALEQFAKLLKQKRITLGYTQADVGLTLGVLFGKVFSQTTICRFEALQLSFKNMCKLRPLLQKWVEEAD [E12A] next?
Not satisfied
